sequences and their reported shrunken log2 fold change
Tested on: Escherichia coli TOP10;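 note: peptides expressed intracellularly from a pBAD plasmid library in pooled LB shake-flask culture, induced with 0.3% L-arabinose, DNA abundance read by NGS, three biological replicates, DESeq2 with apeglm shrinkage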
assay.comment: shrunken log2 fold change of peptide-encoding DNA abundance (4.5 h post-induction vs induction); higher = less antimicrobial activity (less host growth inhibition)
stated.conditions: time post-induction: 4.5 h; library: site-saturation at positions 5, 18, 19, 20
// no unit, no text: just the number

| construct.sequence | measured.value |
| --- | --- |
| RRIRYRPPRLPRPRPRPSGAPRP | -0.299 |
| RRIRDRPPRLPRPRPRPVVYPRP | -0.349 |

Lookup: I have this sequence here, RRIRERPPRLPRPRPRPLLPPRP , and I need its recorded shrunken log2 fold change.
Found: -0.119

Lookup: I have this sequence here, RRIRERPPRLPRPRPRPVYKPRP , and I need its recorded shrunken log2 fold change.
Found: -0.348
